- Tested on: NB6;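 also: growth inhibition of NB6 cells, read out by a cell viability assay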
- EXPERIMENTAL DETAILS: cells
- Type: functional, cell-based, Homo sapiens
- MEASUREMENT PARAMETERS: Homo sapiens, NB6
- Description: SANGER: Inhibition of human NB6 cell growth in a cell viability assay.
pIC50: −log10 of the molar value.
READOUT: pIC50

COMPOUND | TESTED SYSTEM | READOUT | RESULT
Nc1cccc2c1CN(C1CCC(=O)NC1=O)C2=O (stereo not given) [LENALIDOMIDE] | NB6 | pIC50 | < 5.30
C=C(c1ccc(C(=O)O)cc1)c1cc2c(cc1C)C(C)(C)CCC2(C)C | NB6 | pIC50 | < 5.10
Cc1cn(-c2cc(NC(=O)c3ccc(C)c(Nc4nccc(-c5cccnc5)n4)c3)cc(C(F)(F)F)c2)cn1 | NB6 | pIC50 | < 5.70
CO[C@H]1C[C@@H]2CC[C@@H](C)[C@@](O)(O2)C(=O)C(=O)N2CCCC[C@H]2C(=O)O[C@H]([C@H](C)C[C@@H]2CC[C@@H](OC(=O)C(C)(CO)CO)[C@H](OC)C2)CC(=O)[C@H](C)/C=C(\C)[C@@H](O)[C@@H](OC)C(=O)[C@H](C)C[C@H](C)/C=C/C=C/C=C/1C | NB6 | pIC50 | < 6.70
CS(=O)(=O)c1ccc(C(=O)Nc2ccc(Cl)c(-c3ccccn3)c2)c(Cl)c1 | NB6 | pIC50 | < 5.00

###

- Test system: OCI-AML2;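 also: growth inhibition of OCI-AML2 cells, read out with a cell viability assay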
- EXPERIMENTAL DETAILS: cells
- Type: functional, cell-based, Homo sapiens
- MEASUREMENT PARAMETERS: Homo sapiens, OCI-AML2
- Description: SANGER: Inhibition of human OCI-AML2 cell growth in a cell viability assay.

MOLECULE | IC50
O=C(O)c1ccc(-c2c[nH]c3ncc(-c4ccccc4)cc23)cc1C1CCCC1 | > 16 µM
CC1(C)CNc2cc(NC(=O)c3cccnc3NCc3ccncc3)ccc21 | > 2 µM
CC(C)CCN1c2nc(Nc3cc(F)c(O)c(F)c3)ncc2N(C)C(=O)C1C (stereo not drawn) | > 5 µM

###

- Test system: OCUB-M;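 also: growth inhibition of the cancer cell line, read out through a cell viability assay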
- EXPERIMENTAL DETAILS: cells
- Type: functional, cell-based, Homo sapiens
- MEASUREMENT PARAMETERS: Homo sapiens, OCUB-M
- Description: SANGER: Inhibition of human OCUB-M cell growth in a cell viability assay.
In this section we review reported IC50 values for a set of molecules.
READOUT: IC50

MOLECULE | TESTED SYSTEM | RESULT
COc1cc2ncn(-c3cc(OCc4ccccc4S(C)(=O)=O)c(C#N)s3)c2cc1OC [GSK-319347A] | OCUB-M | > 5 µM
Oc1ccc2ccccc2c1SSc1c(O)ccc2ccccc12 | OCUB-M | > 32 µM
N#Cc1c(O)c2c(-c3ccc(-c4ccccc4O)cc3)csc2[nH]c1=O | OCUB-M | > 1.02 µM
CCN(CC)CCCCNc1ncc2cc(-c3cc(OC)cc(OC)c3)c(NC(=O)NC(C)(C)C)nc2n1 | OCUB-M | > 2 µM

###

- Tested on: P30-OHK
- EXPERIMENTAL DETAILS: cells
- Assay type: functional, cell-based, Homo sapiens
- MEASUREMENT PARAMETERS: Homo sapiens, P30-OHK
- Description: SANGER: Inhibition of human P30-OHK cell growth in a cell viability assay.
Listing of recorded IC50 by entry.
READOUT: IC50

COMPOUND SMILES | TESTED SYSTEM | RESULT
CS(=O)(=O)c1ccc(C(=O)Nc2ccc(Cl)c(-c3ccccn3)c2)c(Cl)c1 | P30-OHK | > 10000 nM
CCN(CC)CCCCNc1ncc2cc(-c3cc(OC)cc(OC)c3)c(NC(=O)NC(C)(C)C)nc2n1 | P30-OHK | > 2000 nM
CCC/C=C/C=C/C(=O)O[C@H]1/C(=C/C(=O)OC)C[C@H]2C[C@H]([C@@H](C)O)OC(=O)C[C@H](O)C[C@@H]3C[C@H](OC(C)=O)C(C)(C)[C@](O)(C[C@@H]4C/C(=C/C(=O)OC)C[C@H](/C=C/C(C)(C)[C@]1(O)O2)O4)O3 | P30-OHK | > 8 nM
